System: Pancreatin
Experiment: Protease stability in simulated intestinal fluid (Pancreatin-SIF, FaSSIF)
Format: in vitro ADME
Details: 120 min, 1 μM peptide, 37° C., read-out: FaSSIF 120 (min), remaining percent of peptide
Description: Studies were carried out in simulated intestinal fluid (SIF) and simulated gastric fluid (SGF) to evaluate gastric stability of the peptide compounds disclosed herein. […] To 76 μL of the Pepsin-SGF buffer, 4 μL of the 20 µM peptide stock solution was added and incubated at 37° C. […] The samples were centrifuged for 20 minutes and an aliquot of the supernatant 100 μL were transferred to a LoBind-MTP plate and analyzed by LCMS/MS. […]
Starred links: 1 amine or outer side, 2 acyl side, 3 side chain; linkers in the order of their positions; H or OH if unused. Positions of bridges follow the written chain, without caps; N, C: chain ends. Non-standard residues stand in square brackets, D forms with d. Residues, ends and D or L forms follow the SMILES beside them. *: point of attachment. X3 = CN(CCCCC(=O)N[C@@H](CS[*:2])C(=O)[*:1])[*:3]; Trp(7-Me) = Cc1cccc2c(C[C@H](N)C(=O)O)c[nH]c12; X1 = O=C(CCCCN[*:3])N[C@@H](CS[*:2])C(=O)[*:1]; αMeLys(Me2) = CN(C)CCCC[C@](C)(N)C(=O)O; 2Nal = N[C@@H](Cc1ccc2ccccc2c1)C(=O)O; d2Nal = N[C@H](Cc1ccc2ccccc2c1)C(=O)O; AEF = NCCOc1ccc(C[C@H](N)C(=O)O)cc1; 3Pal = N[C@@H](Cc1cccnc1)C(=O)O; αMeL = CC(C)C[C@](C)(N)C(=O)O; Thp = NC1(C(=O)O)CCOCC1; Me2NCH2CH2 = CN(C)CC*; Aib = CC(C)(N)C(=O)O; Ava = NCCCCC(=O)O; βAla = NCCC(=O)O; Sar = CNCC(=O)O
Let's look at some molecules and their measured remaining at 2 h, 1 µM.
Give the number; % is assumed, so skip it.

Some entries whose results are on file:
| MOLECULE | PROPERTY NAME | UNIT TEXT | ASSAY RESULT |
| --- | --- | --- | --- |
| COc1ccc(C[C@@H]2NC(=O)[C@@H]3CSSC[C@H](NC(=O)[C@@H](NC(C)=O)CCCCNC(=O)C[C@@H](C(=O)N[C@@H](CC(N)=O)C(=O)N[C@@H](CC(N)=O)C(N)=O)NC(=O)C(C)(C)NC(=O)[C@H](Cc4ccc5ccccc5c4)NC2=O)C(=O)N[C@@H](CC(N)=O)C(=O)N[C@@H]([C@@H](C)O)C(=O)N[C@@H](Cc2c[nH]c4ccccc24)C(=O)N[C@@H](CCC(N)=O)C(=O)N3)cc1 [compound 7] (Ac-KCNTWQCY(Me)[2Nal][Aib]DNN-NH2; lactam 1-11; disulfide 2-7) | remaining at 2 h, 1 µM | % | 68 |
| CC(=O)N[C@H]1CCCCNC(=O)[C@@H]2CSSC[C@H](NC(=O)[C@H](CCC(N)=O)NC(=O)[C@H](Cc3c[nH]c4ccccc34)NC1=O)C(=O)N[C@@H](Cc1ccc(OCCN)cc1)C(=O)N[C@@H](Cc1ccc3ccccc3c1)C(=O)NC1(CCOCC1)C(=O)N[C@H](C(=O)N[C@@H](C)C(=O)NCC(N)=O)CCC(=O)N(C)CCCCC(=O)N2 [compound 17] (Ac-KWQC[AEF][2Nal][Thp]EAG-NH2; linker 1-4-8 via X3) | remaining at 2 h, 1 µM | % | 75 |
| CC(=O)NCCCC[C@@H]1NC(=O)[C@H](Cc2c[nH]c3ccccc23)NC(=O)[C@@H](NC(C)=O)CCCCNC(=O)[C@@H]2CSSC[C@H](NC1=O)C(=O)N[C@@H](Cc1ccc(OCCN(C)C)cc1)C(=O)N[C@H](Cc1ccc3ccccc3c1)C(=O)N[C@@](C)(CCCCN(C)C)C(=O)N[C@H](C(=O)N[C@@H](CC(N)=O)C(=O)N[C@@H](Cc1cccnc1)C(=O)N(C)CC(N)=O)CCC(=O)NCCCCC(=O)N2 [compound 59] (Ac-KWK(Ac)CY(Me2NCH2CH2)[d2Nal][αMeLys(Me2)]EN[3Pal][Sar]-NH2; linker 1-4-8 via X1) | remaining at 2 h, 1 µM | % | 97 |
| CC(=O)N[C@H]1CCCCNC(=O)[C@@H]2CSSC[C@H](NC(=O)[C@H](CCC(N)=O)NC(=O)[C@H](Cc3c[nH]c4ccccc34)NC1=O)C(=O)N[C@@H](Cc1ccc(OCCN(C)C)cc1)C(=O)N[C@@H](Cc1ccc3ccccc3c1)C(=O)N[C@@](C)(CC(C)C)C(=O)N[C@H](C(=O)N[C@@H](CC(N)=O)C(=O)NCC(N)=O)CCC(=O)NCCCCC(=O)N2 [compound 31] (Ac-KWQCY(Me2NCH2CH2)[2Nal][αMeL]ENG-NH2; linker 1-4-8 via X1) | remaining at 2 h, 1 µM | % | 72 |
| CC(=O)NCCCC[C@@H]1NC(=O)[C@H](Cc2c[nH]c3c(C)cccc23)NC(=O)[C@H]([C@@H](C)O)NC(=O)[C@H](CC(N)=O)NC(=O)[C@@H]2CSSC[C@H](NC1=O)C(=O)N[C@@H](Cc1ccc(OCCN(C)C)cc1)C(=O)N[C@H](Cc1ccc3ccccc3c1)C(=O)NC1(CCOCC1)C(=O)N[C@H](C(=O)N[C@@H](CC(N)=O)C(=O)N[C@@H](Cc1cccnc1)C(=O)N(C)CC(N)=O)CCC(=O)NCCCCC(=O)N2 | remaining at 2 h, 1 µM | % | 92 |

Request the reported remaining at 2 h, 1 µM associated with CC[C@H](C)[C@H](NC(=O)[C@H](CC(N)=O)NC(=O)[C@H](CC(N)=O)NC(=O)[C@@H]1CCC(=O)NCCCCC(=O)N[C@H]2CSSC[C@H](NC(=O)[C@H](CCC(N)=O)NC(=O)[C@H](Cc3c[nH]c4ccccc34)NC(=O)[C@H]([C@@H](C)O)NC(=O)[C@H](CC(N)=O)NC2=O)C(=O)N[C@@H](Cc2ccc(OCCN(C)C)cc2)C(=O)N[C@@H](Cc2ccc3ccccc3c2)C(=O)NC(C)(C)C(=O)N1)C(N)=O [compound 57] ([Ava]CNTWQCY(Me2NCH2CH2)[2Nal][Aib]ENNI-NH2; disulfide 2-7; lactam N-11)
80

Request the reported remaining at 2 h, 1 µM associated with CC(=O)NCCCC[C@@H]1NC(=O)[C@H](Cc2c[nH]c3c(C)cccc23)NC(=O)[C@H]([C@@H](C)O)NC(=O)[C@H](CC(N)=O)NC(=O)[C@@H]2CSSC[C@H](NC1=O)C(=O)N[C@@H](Cc1ccc(OCCN(C)C)cc1)C(=O)N[C@@H](Cc1ccc3ccccc3c1)C(=O)NC1(CCOCC1)C(=O)N[C@H](C(=O)N[C@@H](CC(N)=O)C(=O)N[C@@H](Cc1cccnc1)C(N)=O)CCC(=O)NCCCCC(=O)N2 [compound 51] ([Ava]CNT[Trp(7-Me)]K(Ac)CY(Me2NCH2CH2)[2Nal][Thp]EN[3Pal]-NH2; disulfide 2-7; lactam N-11)
86

Request the reported remaining at 2 h, 1 µM associated with CC(=O)N[C@H]1CCCCNC(=O)[C@@H]2CSSC[C@H](NC(=O)[C@H](CCC(N)=O)NC(=O)[C@H](Cc3c[nH]c4ccccc34)NC1=O)C(=O)N[C@@H](Cc1ccc(OCCN)cc1)C(=O)N[C@@H](Cc1ccc3ccccc3c1)C(=O)NC(C)(C)C(=O)N[C@H](C(=O)N[C@@H](CC(N)=O)C(=O)N[C@@H](CC(N)=O)C(N)=O)CCC(=O)N(C)CCCCC(=O)N2 [compound 12] (Ac-KWQC[AEF][2Nal][Aib]ENN-NH2; linker 1-4-8 via X3)
59

Request the reported remaining at 2 h, 1 µM associated with CC(=O)NCCCC[C@@H]1NC(=O)[C@H](Cc2c[nH]c3c(C)cccc23)NC(=O)[C@H]([C@@H](C)O)NC(=O)[C@H](CC(N)=O)NC(=O)[C@@H]2CSSC[C@H](NC1=O)C(=O)N[C@@H](Cc1ccc(OCCN(C)C)cc1)C(=O)N[C@@H](Cc1ccc3ccccc3c1)C(=O)NC(C)(C)C(=O)N[C@H](C(=O)N[C@@H](CC(N)=O)C(=O)N[C@@H](Cc1c[nH]cn1)C(=O)NCCC(N)=O)CCC(=O)NCCCCC(=O)N2 [compound 48] ([Ava]CNT[Trp(7-Me)]K(Ac)CY(Me2NCH2CH2)[2Nal][Aib]ENH[βAla]-NH2; disulfide 2-7; lactam N-11)
80
